B1: GFP-FIP200 CTR aa 1458-1594 [human] / GST-p62 FIR 4P [human] (parent)
chain 1: RIMLLERTLQLKEEENKRLNQRLMSQSMSSVSSRHSEKIAIRDFQVGDLVLIILDERHDNYVLFTVSPTLYFLHSESLPALDLKPGEGASGASRRPWVLGKVMEKEYCQAKKAQNRFKVPLGTKFYRVKAVSWNKKV
chain 2: MESDNCSGGDDDWTHLSSKEVDPDTGELQSLQMPESEGPDDLDPDQEGPTGLKEA

# Variants of: B1
# experiment-description: GSH bead recruitment assay imaged by microscopy
# assay-setup: with GST-p62 FIR 4P [human];; read off a plot
Label rule met when percent of parent is at or above 80%; otherwise label rule not met.

Solved entries:
{"columns": ["variant-spec", "label"],
 "data": [
  ["chain 1 R116D", "rule not met"],
  ["chain 1 L78A", "rule met"],
  ["chain 1 F117A", "rule not met"],
  ["chain 1 N60A", "rule met"],
  ["chain 1 L78F", "rule met"]
]}

Ask: For this variant, is measured percent of parent 80% or higher? chain 1 S75A
Reply: rule met

Ask: Does percent of parent meet or surpass 80% for chain 1 N60F ?
Reply: rule not met

Ask: Check the entry chain 1 R127A : does percent of parent equal or exceed 80%?
Reply: rule not met
